# assayTarget: DNA-3-methyladenine glycosylase (Homo sapiens);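 note: enzyme assay where MPG cuts a quenched duplex DNA oligonucleotide probe, paired with APE1 for strand incision and turnover, read as fluorescence at 594 nm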
# conditions: Compound Concentration 10.0 uM, Hit No
# Description: Inhibition of MPG by quantifying inhibition of MPG-mediated cleavage and dissociation of quenched duplex DNA oligonucleotides, measured as fluorescence at 594 nm. To generate a functional strand incision and increase turn-over this assay is coupled to APE1.
// FALSE strictly below 10% in inhibition; TRUE otherwise

>  <molecule>
CNc1nc(-c2ccc3c(N)n[nH]c3c2)cc(N2C[C@@H](C(=O)NC3CCCCC3)CC[C@H]2C)n1

>  <group>
TRUE

$$$$
>  <molecule>
Cc1nn(C)c(C)c1-c1cccc2c1CC[C@H](N(C)C)C2

>  <group>
FALSE

$$$$
>  <molecule>
COC[C@@H](c1ccc(C(F)(F)F)cc1)N1CCN(C2(C)CCN(C(=O)c3c(C)ncnc3C)CC2)C[C@@H]1C

>  <group>
FALSE

$$$$
>  <molecule>
Cn1c(C2(NC(=O)c3ccc4c(C5CCCC5)c(-c5ncc(Br)cn5)n(C)c4c3)CCC2)nc2ccc(/C=C/C(=O)O)cc21

>  <group>
TRUE

$$$$
>  <molecule>
CN1CCCC(n2nc(Cc3ccc(Cl)cc3)c3ccccc3c2=O)CC1 (centres undefined)

>  <group>
FALSE

$$$$

Ask: Please indicate if the recorded inhibition for CCCNS(=O)(=O)Nc1ncnc(OCCOc2ncc(Br)cn2)c1-c1ccc(Br)cc1 meets or exceeds 10%.
Reply: TRUE
